# studyTarget: T1, RSV prefusion F (preF), subtype B (respiratory syncytial virus subtype B)
# T1 construct: also called Prefusion subtype B
# assayName: BLI, IgG
metric: pKd
In simple prose, pKd is minus the logarithm base ten of a concentration in moles per litre.

[ask] Which measured pKd value corresponds to ADI-22778 (antibody, V domains shown, full-length IgG) VH: EVQLVESGPGLVKPSETLSLTCTVSGGSINSYSWTWIRQPPGKGLEWLGSFDYSGSNTYNPSLKSRVTIAVDTSKNQFSLKLTSATAADTAVYYCARAPVYDSSGYYLYYFDNWGQGTLVTVSS VL: DIQMTQSPSSLSASVGDRVTITCRASQSIASYLNWYQQKPGKAPKLLIFAASNLHSGVPSRFSGSGSGTTFTLTISSLQPEDFATYYCQQSYSIRFFTFGPGTKLEIK ?
[reply] 8.40

[ask] Which measured pKd value corresponds to ADI-14380 (antibody, V domains shown, full-length IgG; also called Ab 48) VH: QVQLVQSGAEVKKPGESLKISCKGSGYTFTSYWIGWVRQLPGKGLEWMGVIFPGDSDTRYSPSFQGQVTISADKSISTAYLQWSSLKAADTAMYYCARTRLGRGFYRFDSWGQGTLVTVSS VL: QSVLTQPPSVSAAPGQKVTISCSGSSSNIGNNYVSWYQQLPGTAPRLLIYENNERPSGIPDRFSGSKSGTSATLGITGLQTGDEADYYCATWDSGLSAGYVFGTGTKLTVL ?
[reply] 7.97

[ask] Which measured pKd value corresponds to ADI-24839 (antibody, V domains shown, full-length IgG) VH: EVQLVESGGGLVKPGGSLRLSCAASGFTFSSYSMNWVRQAPGKGLEWVSSISSSSSYIYYADSVKGRFTISRDNAKNSLYLQMNSLRAEDTAVYYCARVLVATAYGNAFDIWGQGTMVTVSS VL: QSVLTQPPSVSGAPGQRVTISCTGSSSNIGAGYDVHWYQQLPGTAPKLLIYGNSNRPSGVPDRFSGSKSGTSASLAITGLQAEDEADYYCQSYDSSLTVVFGGGTKLTVL ?
[reply] 8.02

[ask] Which measured pKd value corresponds to ADI-24812 (antibody, V domains shown, full-length IgG) VH: EVQLVESGGGLVQPGGSLRLSCAASGFSFSTYAMSWVRQAPGKGLEWVSAISGGGGSTYYADSVKGRFTISRDNSKNTLYLQVNSLRAEDTAVYYCARGGYCSSDSCYPFDFWGQGTLVTVSS VL: QPVLTQPPSVSVSPGQTAMITCSGDALPKQYAYWYQQKPGQAPVLVIYKDSERPSGIPERFSGSSSGTTVTLTISGVQAEDEADYYCQSADNSGSYAVFGGGTQLTVL ?
[reply] 8.12

[ask] Which measured pKd value corresponds to ADI-14342 (antibody, V domains shown, full-length IgG; also called Ab 10) VH: QVTLKESGPVLVKPTETLTLTCTVSGFSLSNAKMGVSWIRQPPGKALEWLAYISSNDEKSYSTSLKSRLTISKDTSKSQVVLTMTNMDPVDTATYYCARILLYDSSGYYLWYFDLWGRGTLVTVSS VL: DIQVTQSPSSLSASVGDRVTITCRASQRITSYLNWYQHKPGKAPKLLIFAASSLHSGVPSTFSGSGSGTDFTLTISSLQPEDFATYYCQQSYSTPWTFGQGTKVEIK ?
[reply] 7.58

[ask] Which measured pKd value corresponds to ADI-14371 (antibody, V domains shown, full-length IgG; also called Ab 39) VH: EVQLVESGGGLVQPGGSLRLSCAASGFTFSNYAMTWVRQAPGKGLEWLSSISGSGGSTYYADSVKGRFTISRDNSRNTLYVQMNSLRVEDTAFYYCAKAFYEYGAGSPGDYWGQGTLVTVSS VL: DIQLTQSPSSLSASVGDRVTITCRASQSIGTNLNWYQQKPGKAPKFLIYAASSLQRGVPSRFSGSGSGSEFTLTISSLQPEDFATYYCQQSYSTLPITFGQGTKLEIK ?
[reply] 8.07

[ask] Which measured pKd value corresponds to ADI-24811 (antibody, V domains shown, full-length IgG) VH: QVQLVQSGAEVKKPGASVKVSCKASGYTFTSYDINWVRQATGQGLEWMGWMNPNSGNTGYAQKFQGRVTMTRNTSISTAYMELSSLRSEDTAVYYCARGLPGQWLEYYFDYWGQGTLVTVSS VL: SYVLTQPPSVSVAPGKTARITCGGNNIGSKSVHWYQQKPGQAPVLVIYYDSDRPSGIPERFSGSNSGNTATLTISRVEAGDEADYYCQVWDSSSDHPVFGGGTKVTVL ?
[reply] 8.37
